Reported Cmin (7 hr conc.) by item:
conditions: mouse, in vivo, po, 50 mg/kg, 7 h, pH 2.3
Unit ng/mL implied. Number only.

* Cn1cccc1C(=O)NNC(=O)c1ccccc1Sc1ccc2c(/C=C/c3ccccn3)n[nH]c2c1 [35 (e)] | 6

Prompt: Please report the recorded Cmin (7 hr conc.) for `O=C(Nc1nccs1)c1ccccc1Sc1ccc2c(/C=C/c3ccccn3)n[nH]c2c1` .
Response: 1

---

system: human umbilical vein endothelial cells (HUVEC); assay: HUVEC proliferation assay (VEGF-stimulated, MTT); assay type: cell-based; settings: Table 1; + albumin; read-out: HUVEC + albumin IC50
experimental-endpoint: IC50 (nM)
Unit nM implied. Number only.

Prompt: Please report the recorded IC50 for CC(=O)c1ccc(C(=O)Nc2cccc(C(=O)c3ccc4c(/C=C/c5ccccn5)n[nH]c4c3)c2)s1 [Reference Example 41(e)] .
Response: 6.1

---

assay: in vivo; details: mouse, plasma, po, 10 mg/kg, pH 2.3
experimental-endpoint: AUC (ng·h/mL)
Unit ng·h/mL implied. Number only.

Prompt: Please report the recorded AUC for CCn1nc(C)cc1C(=O)Nc1cccc(Oc2ccc3c(/C=C/c4ccccn4)n[nH]c3c2)c1 [Reference Example 31(d)] .
Response: 49100

---

Reported inhibition at 1 µM by item:
target: CDK1 (Homo sapiens); assay: CDK1 assay (Table 3); type: biochemical; conditions: Table 3; compound concentration 1 µM; NI = no significant inhibition; read-out: CDK1* (% inhibition)
Sequence (P06493 whole entry, species assumed): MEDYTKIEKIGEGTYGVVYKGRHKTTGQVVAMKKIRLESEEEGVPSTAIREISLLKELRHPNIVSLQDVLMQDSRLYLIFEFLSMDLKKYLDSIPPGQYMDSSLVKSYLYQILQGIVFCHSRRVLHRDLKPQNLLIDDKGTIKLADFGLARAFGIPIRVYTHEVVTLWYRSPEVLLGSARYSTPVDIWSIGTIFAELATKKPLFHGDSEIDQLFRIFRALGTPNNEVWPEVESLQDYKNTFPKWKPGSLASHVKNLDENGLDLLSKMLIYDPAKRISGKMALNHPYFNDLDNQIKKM
Sequence (P14635 whole entry partner, species assumed): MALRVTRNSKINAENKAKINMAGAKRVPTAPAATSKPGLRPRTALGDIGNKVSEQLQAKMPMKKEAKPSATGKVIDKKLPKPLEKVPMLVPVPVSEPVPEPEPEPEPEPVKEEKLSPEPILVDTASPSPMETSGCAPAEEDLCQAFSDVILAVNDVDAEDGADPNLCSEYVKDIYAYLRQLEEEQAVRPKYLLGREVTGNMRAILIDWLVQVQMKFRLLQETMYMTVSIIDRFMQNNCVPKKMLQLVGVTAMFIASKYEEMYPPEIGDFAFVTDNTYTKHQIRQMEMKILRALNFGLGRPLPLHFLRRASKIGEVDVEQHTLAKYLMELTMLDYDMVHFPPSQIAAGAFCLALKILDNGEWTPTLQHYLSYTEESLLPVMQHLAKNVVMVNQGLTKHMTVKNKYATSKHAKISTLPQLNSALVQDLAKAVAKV
Please provide the amount together with its unit, number first.

Here is how some compounds turned out for inhibition at 1 µM.
• OCCOc1cc(-c2ccc3c(/C=C/c4ccccc4)n[nH]c3c2)ccc1O [Reference Example 27(i)] = 85%
• Fc1cc(F)cc(/C=C/c2n[nH]c3cc(-c4ccncc4)ccc23)c1 [Reference Example 29(m)] = 54%
• CCOc1cc(-c2ccc3c(/C=C/c4ccccc4)n[nH]c3c2)ccc1O [Reference Example 27(h)] = 84%
• O=C(Nc1ccc(O)cc1)c1ccc2c(-c3nc4cc(F)c(F)cc4[nH]3)n[nH]c2c1 = 1%
• NC(=O)c1ccc2c(-c3nc4ccccc4[nH]3)n[nH]c2c1 [Example 53(e)] = 13%
• Oc1cccc(-c2ccc3c(/C=C/c4ccccc4)n[nH]c3c2)c1 [Reference Example 28(a), 6-(3-hydrophenyl)-3-E-styryl-1H-indazole] = 77%
• CC(C)(C)c1ccc2[nH]c(-c3n[nH]c4cc(C(=O)Nc5ccc(O)cc5)ccc34)nc2c1 = 3%
• FC(F)(F)Oc1cccc(/C=C/c2n[nH]c3cc(-c4ccncc4)ccc23)c1 [Reference Example 29(p)] = 6%
• Cc1nc(/C=C/c2n[nH]c3cc(-c4ccncc4)ccc23)cs1 [Reference Example 29(j)] = 31%

// below: inhibition at 1 µM requested for another compound
Prompt: Please report the recorded inhibition at 1 µM for Oc1ccc(-c2ccc3c(/C=C/c4ccccc4)n[nH]c3c2)cc1O [Reference Example 28(d)] .
Response: 93%

---

target: CDK2/Cyclin A complex (Homo sapiens); assay: CDK2/Cyclin A assay ([32P]ATP incorporation into Rb fragment); format: biochemical; settings: Table 3; read-out: CDK2* (Ki)
experimental-endpoint: pKi
pKi field: float, defined as -log10 of concentration (mol/L).

Prompt: Please report the recorded pKi for Clc1cccc(/C=C/c2n[nH]c3cc(-c4ccncc4)ccc23)c1 [Reference Example 29(i)] .
Response: 5.51

---

molecular target: unphosphorylated VEGF-R2Δ50 (Homo sapiens, UniProt P35968, DEL940-989/E990V); assay: biochemical; conditions: FLVK ** (Ki), Table 1
Sequence (P35968 with tags, fused parts or gaps DEL940-989/E990V limits assumed): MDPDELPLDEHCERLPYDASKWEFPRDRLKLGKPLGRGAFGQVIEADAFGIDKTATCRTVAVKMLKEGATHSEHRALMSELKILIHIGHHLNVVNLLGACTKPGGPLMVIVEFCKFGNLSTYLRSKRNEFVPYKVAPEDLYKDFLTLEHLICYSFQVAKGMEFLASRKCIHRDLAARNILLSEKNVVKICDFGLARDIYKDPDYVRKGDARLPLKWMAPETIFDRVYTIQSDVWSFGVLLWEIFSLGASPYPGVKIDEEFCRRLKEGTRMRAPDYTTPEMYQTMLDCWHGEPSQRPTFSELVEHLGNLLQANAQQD
experimental-endpoint: Ki (nM)
Unit nM implied. Number only.

Prompt: Please report the recorded Ki for O=C(Cc1ccccn1)Nc1cccc(C(=O)c2ccc3c(/C=C/c4ccccc4)n[nH]c3c2)c1 [19(g)] .
Response: 0.86

---

target: human FGF-R1 (Homo sapiens, UniProt P11362, C488A/C584S/L457V); experiment: FGF-R spectrophotometric assay; assay type: biochemical; details: Table 1; compound concentration 1 µM; read-out: FGF-P* (% inhibition)
Sequence (P11362 456-766 L457V/C488A/C584S): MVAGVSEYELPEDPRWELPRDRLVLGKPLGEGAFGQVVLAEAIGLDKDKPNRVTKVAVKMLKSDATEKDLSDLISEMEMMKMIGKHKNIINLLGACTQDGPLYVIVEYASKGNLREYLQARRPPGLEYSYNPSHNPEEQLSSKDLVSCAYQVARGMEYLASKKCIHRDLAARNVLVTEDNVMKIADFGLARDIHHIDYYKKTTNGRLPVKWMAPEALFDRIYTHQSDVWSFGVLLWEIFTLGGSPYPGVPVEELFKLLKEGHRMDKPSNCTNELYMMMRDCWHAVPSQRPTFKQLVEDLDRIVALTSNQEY
experimental-endpoint: inhibition at 1 µM (%)
Unit % implied. Number only.

* O=C(Nc1cccc(Oc2ccc3c(/C=C/c4ccc(Cl)cc4)n[nH]c3c2)c1)c1ccccc1 [6(a)] | 67
* O=C(Cc1cc(F)cc(F)c1)Nc1cccc(C(=O)c2ccc3c(/C=C/c4ccccn4)n[nH]c3c2)c1 [Reference Example 41(f)] | 92
* Cc1cccc(C(=O)Nc2cccc(N(C)c3ccc4c(/C=C/c5ccc6c(c5)OCO6)n[nH]c4c3)c2)c1 [16(b)] | 73

// below: inhibition at 1 µM requested for another compound
Prompt: Please report the recorded inhibition at 1 µM for CCn1nc(C)cc1C(=O)Nc1cc(C(=O)c2ccc3c(/C=C/c4ccccn4)n[nH]c3c2)ccc1C [Reference Example 41(ee)] .
Response: 94

---

details: mouse, in vivo, po, 25 mg/kg, pH 2.3
experimental-endpoint: T1/2
Please provide the amount together with its unit, number first.

- COc1ccc(CNC(=O)c2ccccc2Sc2ccc3c(/C=C/c4ccccn4)n[nH]c3c2)cc1 [35 (g)]: 16.1 h

Prompt: Please report the recorded T1/2 for Cc1cc(C(=O)Nc2cc(C(=O)c3ccc4c(/C=C/c5ccccn5)n[nH]c4c3)ccc2C)n(C(C)C)n1 [41 (kk)] .
Response: 2.0 h

Prompt: Please report the recorded T1/2 for Cc1cnccc1C(=O)Nc1cccc(C(=O)c2ccc3c(/C=C/c4ccccn4)n[nH]c3c2)c1 [41 (j)] .
Response: 1.3 h

---

Reported inhibition at 10 µM by item:
molecular target: phosphorylated Tie-2 (aa 775-1122) (Homo sapiens, UniProt Q02763); construct: 4 to 12 nM phosphorylated Tie-2 (aa 775-1122); made in house; host or cells: insect cells; test: TIE-2 spectrophotometric assay; assay type: biochemical; conditions: read-out: % Inhibition Tie2-P, compound tested at 10 µM
Sequence (Q02763 775-1122): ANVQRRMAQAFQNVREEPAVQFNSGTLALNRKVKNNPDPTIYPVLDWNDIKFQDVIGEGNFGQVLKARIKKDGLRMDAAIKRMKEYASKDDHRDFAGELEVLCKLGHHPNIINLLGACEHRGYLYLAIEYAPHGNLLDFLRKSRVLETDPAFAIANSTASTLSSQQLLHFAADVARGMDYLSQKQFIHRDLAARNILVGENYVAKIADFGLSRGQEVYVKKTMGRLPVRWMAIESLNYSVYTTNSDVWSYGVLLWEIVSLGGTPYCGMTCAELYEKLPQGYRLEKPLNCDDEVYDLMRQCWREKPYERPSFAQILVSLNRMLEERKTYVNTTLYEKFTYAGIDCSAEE
Unit % implied. Number only.

- C=C(c1ccccc1)c1ccc2c(/C=C/c3ccccc3)n[nH]c2c1: 20

Prompt: Please report the recorded inhibition at 10 µM for `COc1cc(-c2ccc3c(/C=C/c4ccc(OC)c(OC)c4)n[nH]c3c2)ccc1O` .
Response: 95

Prompt: Please report the recorded inhibition at 10 µM for `C(=C\c1n[nH]c2cc(Sc3ccccc3)ccc12)/c1ccccc1` .
Response: 31

Prompt: Please report the recorded inhibition at 10 µM for `Cc1cc(O)ccc1-c1ccc2c(-c3nc4ccccc4[nH]3)n[nH]c2c1` .
Response: 92

---

target: LCK tyrosine kinase (Homo sapiens, UniProt P06239, C224D/P223M); experiment: LCK spectrophotometric assay; format: biochemical; details: Table 1; compound concentration 1 µM; read-out: Lck-P* (% inhibition)
Sequence (P06239 223-509 P223M/C224D): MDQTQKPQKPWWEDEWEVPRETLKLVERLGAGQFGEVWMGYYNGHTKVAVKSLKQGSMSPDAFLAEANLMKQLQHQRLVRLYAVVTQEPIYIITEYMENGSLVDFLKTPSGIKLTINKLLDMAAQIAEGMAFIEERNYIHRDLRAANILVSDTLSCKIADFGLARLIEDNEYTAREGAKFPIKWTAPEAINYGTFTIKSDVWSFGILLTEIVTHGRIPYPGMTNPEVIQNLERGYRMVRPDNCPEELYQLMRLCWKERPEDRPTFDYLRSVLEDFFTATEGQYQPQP
experimental-endpoint: inhibition at 1 µM (%)
Unit % implied. Number only.

Here is how some compounds turned out for inhibition at 1 µM.
• C(=C\c1n[nH]c2cc(Oc3ccccc3)ccc12)/c1ccccc1 [8(a), 3-(E-styryl)-6-phenoxy-1H-indazole] = 43
• C=CCn1nc(C)cc1C(=O)Nc1cc(C(=O)c2ccc3c(/C=C/c4ccccn4)n[nH]c3c2)ccc1C [Reference Example 41(ff)] = 15
• CCn1nc(C)cc1C(=O)Nc1cccc(Oc2ccc3c(/C=C/c4ccccn4)n[nH]c3c2)c1 [Reference Example 31(d)] = 52
• CC(C)ONC(=O)c1cccc(F)c1Sc1ccc2c(/C=C/c3ccccn3)n[nH]c2c1 [Reference Example 37(c)] = 12
• CC(=O)Nc1cccc(C(=O)c2ccc3c(/C=C/c4ccccc4)n[nH]c3c2)c1 = 16
• CC(C)ONC(=O)c1ccccc1Sc1ccc2c(/C=C/c3ccccn3)n[nH]c2c1 [Reference Example 35(k)] = 6

// below: inhibition at 1 µM requested for another compound
Prompt: Please report the recorded inhibition at 1 µM for `O=C(c1cccc(NC(=O)c2cccc(Cl)n2)c1)c1ccc2c(/C=C/c3ccccc3)n[nH]c2c1` .
Response: 35

---

target: human FGF-R1 (Homo sapiens, UniProt P11362, C488A/C584S/L457V); assay: FGF-R spectrophotometric assay; format: biochemical; details: Table 1; compound concentration 1 µM; read-out: FGF-P* (% inhibition)
Reported inhibition at 1 µM by item:
Unit % implied. Number only.

- Cc1cc(C(=O)Nc2cc(C(=O)c3ccc4c(/C=C/c5ccccn5)n[nH]c4c3)c(C)cc2C)n(C)n1: 46
- Cc1cc(C(=O)Nc2cc(C(=O)c3ccc4c(/C=C/c5ccccn5)n[nH]c4c3)ccc2C)n(C)n1 [Reference Example 41(hh)]: 74
- O=C(c1cccc(NC(=O)c2ccc(Cl)s2)c1)c1ccc2c(/C=C/c3ccccn3)n[nH]c2c1 [Reference Example 41(o)]: 74

Prompt: Please report the recorded inhibition at 1 µM for C/C=C/C(=O)Nc1cccc(C(=O)c2ccc3c(/C=C/c4ccccn4)n[nH]c3c2)c1 [Reference Example 41(c)] .
Response: 77
